# target_of_assay: human ETA receptors (Homo sapiens, UniProt P25101)
# Construct: endogenous in cells; host or cells: TE 671 cells (ATCC HTB 139)
# Sequence (P25101 21-427): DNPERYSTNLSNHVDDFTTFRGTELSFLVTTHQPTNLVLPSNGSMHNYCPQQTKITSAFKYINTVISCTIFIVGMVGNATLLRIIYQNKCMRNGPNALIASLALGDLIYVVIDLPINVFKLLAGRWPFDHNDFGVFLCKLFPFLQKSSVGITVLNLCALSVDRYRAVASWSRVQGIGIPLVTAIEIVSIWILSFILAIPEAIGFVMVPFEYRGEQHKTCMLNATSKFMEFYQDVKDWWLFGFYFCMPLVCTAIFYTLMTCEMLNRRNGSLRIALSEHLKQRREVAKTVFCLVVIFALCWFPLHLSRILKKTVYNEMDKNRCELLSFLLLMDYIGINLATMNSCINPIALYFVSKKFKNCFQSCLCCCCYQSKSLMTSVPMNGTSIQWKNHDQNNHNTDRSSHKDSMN
# assay_name: Binding Test #1: inhibition of 125I-ET-1 binding to ETA receptors (TE 671 cell membranes)
# measurement_context: Table 1; incubation at 4° C.; read-out: ETA
test_readout: IC50 (nM)
# output: bare number, implied unit nM

Some entries whose results are on file:
Cc1noc(NS(=O)(=O)c2sc3ccc(Cl)cc3c2C)c1Br; 960
Cc1noc(NS(=O)(=O)c2ccc(-c3cccc(N)c3)s2)c1Br; 537
Cc1noc(NS(=O)(=O)c2ccc(-c3ccccn3)s2)c1Br; 3840

Proceed to the following item.
The molecule `CCc1sc2ccccc2c1S(=O)(=O)Nc1onc(C)c1Br` showed IC50 equal to 6.7
